Molecular target: m1 receptor (Homo sapiens)
Sequence (P11229 whole entry): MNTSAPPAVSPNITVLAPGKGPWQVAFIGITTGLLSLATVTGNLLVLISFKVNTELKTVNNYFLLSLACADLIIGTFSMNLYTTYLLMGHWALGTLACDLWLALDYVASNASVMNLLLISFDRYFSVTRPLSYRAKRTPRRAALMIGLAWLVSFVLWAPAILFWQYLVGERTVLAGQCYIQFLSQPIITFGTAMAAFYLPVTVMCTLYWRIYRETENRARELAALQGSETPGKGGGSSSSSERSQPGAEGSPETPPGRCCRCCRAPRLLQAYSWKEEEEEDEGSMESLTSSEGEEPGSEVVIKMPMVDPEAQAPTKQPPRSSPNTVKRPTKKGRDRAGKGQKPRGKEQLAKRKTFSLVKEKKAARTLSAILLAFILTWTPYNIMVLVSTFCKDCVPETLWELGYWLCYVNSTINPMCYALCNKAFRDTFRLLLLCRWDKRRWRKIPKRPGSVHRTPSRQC
Assay: biochemical
Details: ml 3H QNB Binding in CHO cells Ki, 0.23 nM [3H]QNB, 37° C., one hour
Could you please report measured log10(Ki) for the items listed next?
Heads up, the numbers here are log10 of Ki in µM units.

Give the reported log10(Ki) for CCNC(=O)O[C@H]1CN2CC[C@H]1C2 (single isomer, unassigned) [Example 7] (system: m1 receptor (Homo sapiens)). 1.16

One more compound: O=C(NCC(F)(F)F)O[C@H]1CN2CC[C@H]1C2 (relative stereo) [Example 9] 1.16

Queued: O=C(NCC(F)(F)F)O[C@H]1CN2CC[C@H]1C2 (single isomer, unassigned) [Example 10] 1.25

Then this compound: CNC(=S)O[C@H]1CN2CC[C@H]1C2 (relative stereo) [Example 4] 0.57

Also check CNC(=S)O[C@H]1CN2CC[C@H]1C2 (single isomer, unassigned) [Example 5] 0.84

Now this one: CNC(=S)O[C@H]1CN2CC[C@H]1C2 (single isomer, unassigned) [Example 6] 1.16

Moving on to O=C(NC1CC1)O[C@H]1CN2CC[C@H]1C2 (relative stereo) [Example 11] 0.26

Request: CNC(=O)O[C@H]1CN2CC[C@H]1C2 (single isomer, unassigned) [Example 3] 1.42

Record: C#CCNC(=O)O[C@H]1CN2CC[C@H]1C2 (single isomer, unassigned) 1.16

Check CNC(=O)O[C@H]1CN2CC[C@H]1C2 (relative stereo) [Example 1] too. 1.47

Next: CNC(=O)O[C@H]1CN2CC[C@H]1C2 (single isomer, unassigned) [Example 2] 1.62

Try the compound CCNC(=O)O[C@H]1CN2CC[C@H]1C2 (single isomer, unassigned) [Example 8] 1.33

Try this compound too: O=C(NC1CC1)O[C@H]1CN2CC[C@H]1C2 (single isomer, unassigned) [Example 12] 1.31

* * *

Molecular target: M1 acetylcholine receptors (Homo sapiens, UniProt P11229)
Sequence (P11229 whole entry): as above
Assay: stimulation of phosphoinositide (PI) hydrolysis in CHO cells transfected with M1 receptor cDNA
Settings: m1 receptors in CHO cells; read-out: % PI Hydrolysis ml receptors in CHO cells ED50
Assignment: determine reported EC50 for the given molecules.

Request body: readout EC50, system M1 acetylcholine receptors (Homo sapiens, UniProt P11229), query CNC(=S)O[C@H]1CN2CC[C@H]1C2 (single isomer, unassigned) [Example 5] . Return the value. 2.9 µM

Next record, please: CNC(=O)O[C@H]1CN2CC[C@H]1C2 (relative stereo) [Example 1] 6.9 µM

Entry to check: CNC(=S)O[C@H]1CN2CC[C@H]1C2 (single isomer, unassigned) [Example 6] 6.3 µM

Would you kindly repeat that for CNC(=O)O[C@H]1CN2CC[C@H]1C2 (single isomer, unassigned) [Example 3] ? 9.8 µM
